Source: paper doi:10.1101/575795

Test system: CCR5-SNAP labeled with Alexa-488 (CCR5-SNAP-488) (human)
Experimental protocol: fluorescence cross-correlation spectroscopy
List of pKd values.
Give only the number. pKd is defined as minus log10 of concentration in molar units.

Below: 3 substances and their reported pKd.
>  <Substance>
Alexa-647-labeled 5P12-RANTES (5P12-647) (from UniProt P13501 24-91) (ligand)

>  <pKd>
9.43

$$$$
>  <Substance>
Alexa-647-labeled PSC-RANTES (PSC-647) (from UniProt P13501 24-91) (ligand)

>  <pKd>
8.18

$$$$
>  <Substance>
Alexa-647-labeled 6P4-RANTES (6P4-647) (from UniProt P13501 24-91) (ligand)

>  <pKd>
7.98

$$$$

Lookup result for Alexa-647-labeled 5P14-RANTES (5P14-647) (from UniProt P13501 24-91) (ligand) ; measured pKd: 9.32
